# procedure details: chemical genetic growth profiling, strain panel (AID 1159580);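 further: tested at 20 µM; growth read once vehicle control cultures reached saturation at 30 °C; 1 = growth at the plate median or of vehicle wells; lower values mean less growth of the strain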
# condition context: S. cerevisiae deletion strains, growth OD, locus YDR363W, strain ESC2, stronger effect = lower value
Among all 5,500 compounds or so, about 2,000 (36%) were called active. Not shown: some 18% with an inconclusive outcome. This is one part of the list.
parameter: normalized growth
The answer should be written as a number, with no unit following it.

Data request: If you can, please state the reported normalized growth value of `C[N+]1(C)CCN(c2ccccc2)CC1` .
Data returned: 1.04

Data request: Which normalized growth is reported for this compound? `COc1ccc([C@@H]2Sc3ccccc3N(CCN(C)C)C(=O)[C@@H]2OC(C)=O)cc1`
Data returned: 0.951

Data request: Query: normalized growth; subject: Cc1o[nH]c(=O)c1CC(N)C(=O)O (stereo not drawn)
Data returned: 1.01

Data request: What measured normalized growth goes with NC(=O)c1ncn(C2OC(CO)C(O)C2O)c1O (stereo not drawn) ?
Data returned: 1.01

Data request: Any idea what normalized growth was measured for `CN(C)CCCN1c2ccccc2CCc2ccccc21` ?
Data returned: 0.964

Data request: State the recorded normalized growth for this entry: Cc1c(C)c2c(c(C)c1O)CCC(C)(CN1CCN(c3cc(N4CCCC4)nc(N4CCCC4)n3)CC1)O2 (stereo not drawn)
Data returned: 0.96

Data request: Find the recorded normalized growth belonging to `CN(C)CCCN1c2ccccc2Sc2ccc(C(F)(F)F)cc21` and report it.
Data returned: 0.896

Data request: Which normalized growth value belongs to `CN(C)CCCN1c2ccccc2Sc2ccc(Cl)cc21` ?
Data returned: 0.953

Data request: Recorded normalized growth of `O=C1N(c2ccccc2)c2ccccc2C1(Cc1ccncc1)Cc1ccncc1` , please.
Data returned: 1.03

Data request: Entry CCCN1CC(CSC)CC2c3cccc4[nH]cc(c34)CC21 (stereo not drawn) : reported normalized growth = ?
Data returned: 0.989

Data request: Which normalized growth value is on record for `CS(=O)(=O)Nc1ccc([N+](=O)[O-])cc1Oc1ccccc1` ?
Data returned: 0.994

Data request: Find the recorded normalized growth belonging to `CN(C)CCCN1c2ccccc2Sc2ccccc21` and report it.
Data returned: 0.976

Data request: Name the recorded normalized growth for `CCC(=O)c1ccc2c(c1)N(CCCN(C)C)c1ccccc1S2` .
Data returned: 1.02
